Experiment: Cytotoxicity against human HEK293 cells assessed as cell survival at 20 uM by SRB assay
Format: cell-based
Conditions: read-out: Survival
Listed here are molecules together with their documented viability at 20 µM.
Hi! Could you send only the number? It should be in %, unit omitted.

Below: 2 molecules and their reported viability at 20 µM.
{"columns": ["molecule", "viability at 20 µM / %"],
 "data": [
  ["CC1=C(CO)C(=O)O[C@@H]([C@](C)(O)[C@@]2(O)CC[C@H]3[C@@H]4CC=C5CC=CC(=O)[C@]5(C)[C@H]4CC[C@@]32C)C1", 93.2],
  ["CC1=C(CO)C(=O)O[C@@H]([C@](C)(O)[C@@]2(O)CC=C3[C@@H]4CC=C5CC=CC(=O)[C@]5(C)[C@H]4CC[C@@]32C)C1", 90.3]
]}

We now examine a further molecule.
Exercise: Requested field: viability at 20 µM. Item: CC1=C(C)C(=O)O[C@@H]([C@](C)(O)[C@]2(O)CC[C@@]3(O)[C@@H]4CC=C5CC=CC(=O)[C@]5(C)[C@H]4CC[C@]23C)C1 [WITHANOLIDE F]
Key: 100
